Assignment: determine reported MIC for the given compounds.
Tested on: Acinetobacter baumannii
assay summary: Antibacterial activity against trimethoprim-sulfamethoxazole, cefepime-resistant Acinetobacter baumannii by microdilution method
Format: functional

Recorded results for 3 compounds are shown here.
| structure smiles string | test system | MIC |
| --- | --- | --- |
| O=c1cc(CCl)oc(CN2CCN(c3cccc(C(F)(F)F)c3)CC2)c1O | Acinetobacter baumannii | 64 mg/L |
| O=c1cc(CCl)oc(CN2CCN(c3ccccc3F)CC2)c1O | Acinetobacter baumannii | 64 mg/L |
| COc1cccc(N2CCN(Cc3oc(CCl)cc(=O)c3O)CC2)c1 | Acinetobacter baumannii | 64 mg/L |

Okay, next one:
Give MIC for this entry on Acinetobacter baumannii: O=c1cc(CCl)oc(CN2CCN(c3ccc(Cl)c(Cl)c3)CC2)c1O
32 mg/L
